assay: HEp-2 cell cytotoxicity, dose response, cytotoxicity control for RSV inhibitor project, HTS (AID 2410); type: functional; settings: human respiratory syncytial virus
Activity calls are given as the source filed them. No rule for the calls is given here.
Listing of entries alongside the reported CC50.
recorded.metric: CC50

1. COc1ccc(C(c2c(NC(=O)c3ccco3)sc(C)c2C)N2CCOCC2)cc1OC (stereo not drawn); 46.5 µM (active)
2. Cc1cc(O)nc(N/N=C/c2c(C)nn(-c3ccccc3Cl)c2Cl)n1; 21.2 µM (active)
3. CCO[C@H]1OC(C(=O)Nc2ccccc2)=C[C@@H](c2ccc(Br)cc2)[C@@H]1CCCO; 17.6 µM (active)
4. C[C@]12CCC(O)CC1CCC1C2CC[C@]2(C)C(c3cc(C(F)(F)F)[nH]n3)CCC12 (stereo partly drawn); 8.08 µM (active)
5. CC(C)C/N=C/c1c(O)c([N+](=O)[O-])cc2oc3c(c12)CCCC3; 25.3 µM (active)
6. Clc1cccc(CSc2nnc(-c3ccccn3)n2Cc2ccco2)c1; 15.1 µM (active)
7. O=C(c1ccc2c(c1)OCCO2)C1CCN(S(=O)(=O)c2ccccc2F)CC1; > 50 µM (active)
8. CCOC(=O)c1c(C)oc2c1c1c(c3ccccc32)OCN(CCCC(=O)O)C1; 43.6 µM (active)

Reference source for all entries: ChEMBL document CHEMBL1201862
